MEASURE NAME: flash point (°C)
State just the number; it will be interpreted in °C.

Q. Request the reported flash point associated with "C1CCC(NC2CCCCC2)CC1"
A. 99.00

Q. # repeat for "NCCNCCNCCNCCN"
A. 163.00

Q. # repeat for "Clc1cc(Cl)c(Cl)cc1Cl"
A. 155.00

Q. # repeat for "NCc1ccccc1"
A. 63.00

Q. # repeat for "C=CC(=O)O"
A. 52.00

Q. # repeat for CC(=O)CC(C)C [Methyl isobutyl ketone]
A. 23.00

Q. # repeat for "CCC[N+](=O)[O-]"
A. 49.00

Q. # repeat for "Cc1cccc(N)c1C"
A. 97.00

Q. # repeat for "CCCCS"
A. 2.00

Q. # repeat for "Cc1cccc(N)c1"
A. 86.00

Q. # repeat for "Nc1ccccc1"
A. 70.00

Q. # repeat for "Cc1ccc(O)cc1"
A. 94.00

Q. # repeat for "CCC(C)=O"
A. -7.00

###

For each record, check the reported flash point: if it is below 40 °C write Condition met, else write Condition not met.

Q. Given C[SiH](C)c1ccccc1 [Phenyldimethylsilane] , is recorded flash point strictly lower than 40 °C?
A. Condition met

Q. # repeat for CCC[Si](O[SiH](C)C)(O[SiH](C)C)O[SiH](C)C [Propyltris(dimethylsiloxy)silane]
A. Condition not met

Q. # repeat for CC[Si](C)(C)Cl [Ethyldimethylchlorosilane]
A. Condition met

Q. # repeat for CCC[Si](C)(Cl)Cl [n-Propylmethyldichlorosilane]
A. Condition met

Q. # repeat for CCCCCCCCCC[Si](C)(Cl)Cl [n-Decylmethyldichlorosilane]
A. Condition not met

###

MEASURE NAME: flash point (°C)
State just the number; it will be interpreted in °C.

Q. Request the reported flash point associated with CC(C)COC(=O)C(C)C [2-methylpropyl 2-methylpropanoate]
A. 37.00

Q. # repeat for COC(=O)c1ccc(C)cc1 [methyl 4-methylbenzoate]
A. 96.00

Q. # repeat for "O=Cc1ccc(Cl)cc1"
A. 88.00

Q. # repeat for "O=C1CCCO1"
A. 98.00

Q. # repeat for "O=C=NCCCCCCN=C=O"
A. 140.00

Q. # repeat for "CCCCCCN"
A. 29.00

Q. # repeat for CCCC(=O)OC [methyl butanoate]
A. 14.00

Q. # repeat for CCCCOP(=O)(CCCC)OCCCC [1-[butoxy(butyl)phosphoryl]oxybutane]
A. 154.00

Q. # repeat for "CCCCCCCCCCCC(C)=O"
A. 107.00

Q. # repeat for "Cc1cc(C)c(C)cc1C"
A. 54.00

Q. # repeat for "C1=CCCC=C1"
A. 26.00

Q. # repeat for CC(=O)OCCOC(C)=O [2-acetyloxyethyl acetate]
A. 96.00

Q. # repeat for "O=CO"
A. 69.00

Q. # repeat for CC(C)CCCCCOC(=O)C(C)Oc1cc(Cl)c(Cl)cc1Cl (configuration not stated) [6-methylheptyl 2-(2,4,5-trichlorophenoxy)propanoate]
A. 207.00

Q. # repeat for "CCCNCCC"
A. 17.00

Q. # repeat for C=CC(=O)OCCOCCOC(=O)C=C [2-(2-prop-2-enoyloxyethoxy)ethyl prop-2-enoate]
A. 78.00

Q. # repeat for CCOc1cc(C=O)ccc1O [3-ethoxy-4-hydroxybenzaldehyde]
A. 145.00

Q. # repeat for CCCCCCCCCCCCCCCCCC(=O)OC [methyl octadecanoate]
A. 153.00

Q. # repeat for CC(=O)OOC(C)=O [acetyl ethaneperoxoate]
A. 45.00

Q. # repeat for O=P(N1CC1)(N1CC1)N1CC1 [1-[bis(aziridin-1-yl)phosphoryl]aziridine]
A. 163.00

Q. # repeat for Cc1ccccc1OP(=O)(Oc1ccccc1)Oc1ccccc1 [(2-methylphenyl) diphenyl phosphate]
A. 232.00

Q. # repeat for "c1ccc(-c2cccc(-c3ccccc3)c2)cc1"
A. 191.00

Q. # repeat for C=CC(=O)OCC(C)C [2-methylpropyl prop-2-enoate]
A. 30.00

Q. # repeat for COC(=O)c1cccc(C(=O)OC)c1 [dimethyl benzene-1,3-dicarboxylate]
A. 138.00

Q. # repeat for CC12CCC(CC1=O)C2(C)C (configuration not stated) [1,7,7-trimethylbicyclo[2.2.1]heptan-2-one]
A. 66.00

Q. # repeat for COC(=O)c1ccc(C(=O)OC)cc1 [dimethyl benzene-1,4-dicarboxylate]
A. 153.00

Q. # repeat for CCCC(C)OC(C)=O (configuration not stated) [pentan-2-yl acetate]
A. 32.00

Q. # repeat for C=COC(C)=O [ethenyl acetate]
A. -8.00

Q. # repeat for "CCN(CC)c1ccccc1"
A. 85.00

Q. # repeat for "Oc1ccc(O)cc1"
A. 165.00

Q. # repeat for "COc1cc(CNC(=O)CCCC/C=C/C(C)C)ccc1O"
A. 113.00

Q. # repeat for CCC(C)CO (configuration not stated)
A. 50.00

Q. # repeat for "CC(C)CNCC(C)C"
A. 29.00

Q. # repeat for CCC1CO1 (configuration not stated)
A. -12.00

Q. # repeat for "CCBr"
A. -23.00

Q. # repeat for "Cc1cccc(F)c1"
A. 9.00

Q. # repeat for "C=O.O=C=Nc1ccccc1"
A. 218.00

Q. # repeat for COC(O)COCCOCCOCCO (configuration not stated) [2-[2-[2-(2-hydroxyethoxy)ethoxy]ethoxy]-1-methoxyethanol]
A. 161.00

Q. # repeat for "Clc1ccc2ccccc2c1"
A. 125.00

Q. # repeat for CC1CNCC(C)O1 (configuration not stated)
A. 44.00

Q. # repeat for C=C(C)C(=O)OCCC[Si](OC)(OC)OC [3-trimethoxysilylpropyl 2-methylprop-2-enoate]
A. 92.00

Q. # repeat for "OCCc1ccccc1"
A. 96.00

###

Record form. Attribute: flash point. Fill in for each entry.
State just the number; it will be interpreted in °C.

Q. Request the reported flash point associated with CCCCC(CC)CCC (stereo not drawn) [4-ethyloctane]
A. 41

Q. # repeat for O=CC1CCCCC1 [cyclohexanecarboxaldehyde]
A. 41

Q. # repeat for C=CCC#N [3-butenenitrile]
A. 21

Q. # repeat for CCCOCC [ethylpropylether]
A. -25

Q. # repeat for CCCC(C)(C)CCC [4,4-dimethylheptane]
A. 15

Q. # repeat for CCCCCCCCN [octylamine]
A. 60

Q. # repeat for CCCCCCCCCC(C)C [2-methylundecane]
A. 61

Q. # repeat for C#CCCCCCC#C [1,8-nonadiyne]
A. 42

Q. # repeat for CCCCC(=O)CCC [4-octanone]
A. 45

Q. # repeat for C1CCSCC1 [thiacyclohexane]
A. 21

Q. # repeat for CC(C)COC(=O)c1ccccc1 [isobutylbenzoate]
A. 102

Q. # repeat for CC(C)CN [isobutylamine]
A. -10

Q. # repeat for Cc1ccccc1C [o-xylene]
A. 30

###

Response field class: string, computed from recorded flash point by ranges lo = under 70 °C, med = from 70 °C up to 100 °C, hi = 100 °C and over

Q. Category lookup for the molecule C=C(Cl)C(Cl)CCl (stereo not given) [2,3,4-trichlorobut-1-ene]
A. lo

Q. # repeat for C=Cc1ccccc1C [1-ethenyl-2-methylbenzene]
A. lo

Q. # repeat for C=CC(C)(C)O [2-methylbut-3-en-2-ol]
A. lo

Q. # repeat for C/C=C/c1ccc(OC)cc1 [1-methoxy-4-[(E)-prop-1-enyl]benzene]
A. med

Q. # repeat for CCCCCCCCCCc1ccccc1 [decylbenzene]
A. hi

Q. # repeat for CCC1CCC(CCC(=O)[O-])C1.CCC1CCC(CCC(=O)[O-])CC1.[Cu+2] (stereo not given)
A. lo

Q. # repeat for CCCCCCCCCCCCCOC(=O)c1ccccc1C(=O)OCCCCCCCCCCCCC [ditridecyl benzene-1,2-dicarboxylate]
A. hi

Q. # repeat for CCCSC(=O)N(CCC)CCC [S-propyl N,N-dipropylcarbamothioate]
A. hi

Q. # repeat for COS(C)(=O)=O [methyl methanesulfonate]
A. hi

Q. # repeat for COC(C)CCOC(C)=O (stereo not given) [3-methoxybutyl acetate]
A. med

Q. # repeat for NC(=Nc1ccccc1)Nc1ccccc1 [1,2-diphenylguanidine]
A. hi

Q. # repeat for CC1CCCCC1=O (stereo not given) [2-methylcyclohexan-1-one]
A. lo

Q. # repeat for "S=C([S-])NCCNC(=S)[S-].S=C([S-])NCCNC(=S)[S-].[Mn+2].[Zn+2]"
A. hi

Q. # repeat for CCN(C(=O)N(CC)c1ccccc1)c1ccccc1 [1,3-diethyl-1,3-diphenylurea]
A. hi

Q. # repeat for CCCCCCCCCCCCS [dodecane-1-thiol]
A. med

Q. # repeat for CC(COc1ccc(Oc2ccccc2)cc1)Oc1ccccn1 (stereo not given) [2-[1-(4-phenoxyphenoxy)propan-2-yloxy]pyridine]
A. hi

Q. # repeat for Clc1cc(Cl)cc(Cl)c1 [1,3,5-trichlorobenzene]
A. hi

Q. # repeat for CCCCOC(=O)CC [butyl propanoate]
A. lo

###

Record form. Attribute: flash point. Fill in for each entry.
State just the number; it will be interpreted in °C.

Q. Request the reported flash point associated with "O=[N+]([O-])c1cccc2ccccc12"
A. 164.00

Q. # repeat for Nc1ccc(Cc2ccc(N)cc2)cc1 [4-[(4-aminophenyl)methyl]aniline]
A. 221.00

Q. # repeat for "NCc1ccco1"
A. 37.00

Q. # repeat for "C=CCCCCCCCCCCC"
A. 79.00

Q. # repeat for CCCCCC(=O)OC [methyl hexanoate]
A. 73.00

Q. # repeat for "CCC(=O)O"
A. 54.00

Q. # repeat for "CN(C)c1ccccc1"
A. 63.00

Q. # repeat for CCC(C(c1ccc(Cl)cc1)c1ccc(Cl)cc1)[N+](=O)[O-] (stereo not given) [1-chloro-4-[1-(4-chlorophenyl)-2-nitrobutyl]benzene]
A. 150.00

Q. # repeat for "COc1ccccc1[N+](=O)[O-]"
A. 142.00

Q. # repeat for "O=C(O)CCCCCCCC(=O)O"
A. 210.00
